tested on: OVMIU (Ovarian Carcinoma); assay: combination Emax (second highest fraction inhibited in the dose matrix, 72 h); higher = more inhibition; extreme values may be limits of the assay
Readout label: combination Emax
One number for each entry.

{"columns": ["Molecule", "combination Emax"],
 "data": [
  ["Cc1c2c(nn1C)CSCc1cc(n(C)n1)CSc1cc(c3ccccc3c1)OCCCc1c(C(=O)O)n(C)c3c-2c(Cl)ccc13 [AZD5991] + Cc1cc2ncnn2cc1Nc1ncc2c(n1)n(C1CCOCC1)c(=O)n2C [AZD7648] (first compound max 1 µM, 7x7, partner max 10 µM)", 0.547],
  ["N#Cc1cnc(Nc2cc(NC[C@H]3CNCCO3)c(C(F)(F)F)cn2)cn1 [SRA737] + C=CCn1c(=O)c2cnc(Nc3ccc(N4CCN(C)CC4)cc3)nc2n1-c1cccc(C(C)(C)O)n1 [AZD1775] (first compound max 10 µM, partner max 1 µM)", 0.669],
  ["Cn1cnc2c(F)c(Nc3ccc(Br)cc3Cl)c(C(=O)NOCCO)cc21 [Selumetinib] + C[C@@H]1COCCN1C2=NC(=NC(=C2)C3(CC3)[S@](=N)(=O)C)C4=C5C=CNC5=NC=C4 [AZD6738] (first compound max 10 µM, 7x7, partner max 10 µM)", 0.476],
  ["CN(CCO)CC[C@H](CSc1ccccc1)Nc1ccc(S(=O)(=O)NC(=O)c2ccc(N3CCC([C@@H](O)c4ccccc4-c4ccc(Cl)cc4)CC3)cc2)cc1S(=O)(=O)C(F)(F)F [AZD4320] + C[C@@H]1COCCN1C2=NC(=NC(=C2)C3(CC3)[S@](=N)(=O)C)C4=C5C=CNC5=NC=C4 [AZD6738] (first compound max 1 µM, 7x7, partner max 10 µM)", 0.824]
]}

// lookup combination Emax | system=OVMIU (Ovarian Carcinoma) | key= C[C@@H](Nc1cc(F)cc(F)c1)c1cc(C(=O)N(C)C)cc2c(=O)cc(N3CCOCC3)oc12 [AZD8186] + C1CN(CCC1(C(=O)N[C@@H](CCO)C2=CC=C(C=C2)Cl)N)C3=NC=NC4=C3C=CN4 [AZD5363] (first compound max 10 µM, 7x7, partner max 10 µM) 0.509

---

system: COLO-680N (Esophageal Squamous Cell Carcinoma); test: Bliss excess, mean over the matrix (fraction); higher = more synergy;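 also: after 72 h of two-drug dosing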
Please respond with reported Bliss excess for every item in the list.
Give bare numbers.

// worked examples, Bliss excess included
{"columns": ["Compound", "Bliss excess"],
 "data": [
  ["Cc1c2c(nn1C)CSCc1cc(n(C)n1)CSc1cc(c3ccccc3c1)OCCCc1c(C(=O)O)n(C)c3c-2c(Cl)ccc13 [AZD5991] + CS(=O)(=O)CCNCc1ccc(-c2ccc3ncnc(Nc4ccc(OCc5cccc(F)c5)c(Cl)c4)c3c2)o1 [Lapatinib] (first compound max 1 µM, 7x7, partner max 10 µM)", -0.011],
  ["N#Cc1cnc(Nc2cc(NC[C@H]3CNCCO3)c(C(F)(F)F)cn2)cn1 [SRA737] + C=CCn1c(=O)c2cnc(Nc3ccc(N4CCN(C)CC4)cc3)nc2n1-c1cccc(C(C)(C)O)n1 [AZD1775] (first compound max 10 µM, partner max 1 µM)", 0.0422],
  ["O=C(c1cc(Cc2n[nH]c(=O)c3ccccc23)ccc1F)N1CCN(C(=O)C2CC2)CC1 [Olaparib] + Cc1c2c(nn1C)CSCc1cc(n(C)n1)CSc1cc(c3ccccc3c1)OCCCc1c(C(=O)O)n(C)c3c-2c(Cl)ccc13 [AZD5991] (first compound max 10 µM, 7x7, partner max 1 µM)", -0.0543],
  ["Cc1nc(-c2cn3c(n2)-c2ccc(-c4cnn(C(C)(C)C(N)=O)c4)cc2OCC3)n(C(C)C)n1 [Taselisib] + O=C(Nc1ccc2[nH]nc(-c3ccncc3)c2c1)[C@@H]1CCN(CC(=O)N2CCN(c3ccc(-c4ncccn4)cc3)CC2)C1 [SCH772984] (first compound max 10 µM, 7x7, partner max 5 µM)", 0.0219],
  ["C=CCn1c(=O)c2cnc(Nc3ccc(N4CCN(C)CC4)cc3)nc2n1-c1cccc(C(C)(C)O)n1 [AZD1775] + O=C(c1cc(Cc2n[nH]c(=O)c3ccccc23)ccc1F)N1CCN(C(=O)C2CC2)CC1 [Olaparib] (first compound max 1 µM, partner max 10 µM)", -0.0482],
  ["Cn1cnc2c(F)c(Nc3ccc(Br)cc3Cl)c(C(=O)NOCCO)cc21 [Selumetinib] + CCN(CCO)CCCOc1ccc2c(Nc3cc(CC(=O)Nc4cccc(F)c4)[nH]n3)ncnc2c1 [AZD2811] (first compound max 10 µM, 7x7, partner max 1 µM)", -0.0324]
]}

# ---- query compound ----
# lookup: Bliss excess of CN(C)CCCOc1ccc(-c2ccc3ncc4c(c3c2)n(C2CCOCC2)c(=O)n4C)cn1 [AZD0156] + C=CCn1c(=O)c2cnc(Nc3ccc(N4CCN(C)CC4)cc3)nc2n1-c1cccc(C(C)(C)O)n1 [AZD1775] (first compound max 1 µM, partner max 1 µM) -0.0252
